Taken from PubChem BioAssay (NCATS).

Listing of entries alongside the reported max response.
Experiment: qHTS Assay for Identifying Gametocytocidal Compounds (AID 743244);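 further: on the % scale 0 is the no-effect control and ±100 the full control effect; actives lower the fluorescent signal which means gametocytes are killed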
Settings: P. falciparum 3D7 stage III-V gametocytes, alamarBlue, 72 h; stronger effect = lower value
Results filed as inconclusive are left out. Where a SMILES comes first, the peptide text is derived from it. [ ]: non-standard residue; d: D form. pGlu = O=C1CC[C@@H](C(=O)O)N1; Thz = O=C(O)[C@@H]1CSCN1
ASSAY ENDPOINT: max response (%)

[
  {
    "COMPOUND": "O=C(OCc1ccccc1)c1ccccc1",
    "MEASUREMENT UNITS": "%",
    "DATA VALUE": -5.44
  },
  {
    "COMPOUND": "NC(=S)NCCC[C@H](N)C(=O)O",
    "MEASUREMENT UNITS": "%",
    "DATA VALUE": 29.7
  },
  {
    "COMPOUND": "CCCCCCCCCCCCCCCCCCNC(=O)OCC(COP(=O)([O-])OCC[n+]1ccsc1)OC (stereo not drawn)",
    "MEASUREMENT UNITS": "%",
    "DATA VALUE": 12.3
  },
  {
    "COMPOUND": "CC(C)OC(=O)c1cc(C(=O)OC(C)C)cc([N+](=O)[O-])c1",
    "MEASUREMENT UNITS": "%",
    "DATA VALUE": 4.99
  },
  {
    "COMPOUND": "CO/S(=N\\S(=O)(=O)c1ccc(Cl)cc1)c1ccc([N+](=O)[O-])cc1 (stereo not drawn)",
    "MEASUREMENT UNITS": "%",
    "DATA VALUE": 19.6
  },
  {
    "COMPOUND": "N=C(N)SCCc1ccc(CCSC(=N)N)cc1",
    "MEASUREMENT UNITS": "%",
    "DATA VALUE": 24
  },
  {
    "COMPOUND": "Nc1cc(-c2ccncc2)c[nH]c1=O",
    "MEASUREMENT UNITS": "%",
    "DATA VALUE": 14.6
  },
  {
    "COMPOUND": "C#C[C@]1(O)CC[C@H]2[C@@H]3CCC4=Cc5oncc5CC4(C)[C@H]3CCC21C (stereo partly drawn)",
    "MEASUREMENT UNITS": "%",
    "DATA VALUE": 25.1
  },
  {
    "COMPOUND": "COc1cc(/C=C/C(=O)N2CCN(CC(=O)N3CCCC3)CC2)cc(OC)c1OC",
    "MEASUREMENT UNITS": "%",
    "DATA VALUE": -1.2
  },
  {
    "COMPOUND": "CCCCCCCCCCCCCCCCCC(=O)O",
    "MEASUREMENT UNITS": "%",
    "DATA VALUE": -10.4
  },
  {
    "COMPOUND": "CC(=O)O[C@H]1C[C@@]2(C)[C@@H](C[C@@H](O)[C@H]3[C@@]4(C)CC[C@@H](O)[C@@H](C)[C@@H]4CC[C@@]32C)/C1=C(\\CCC=C(C)C)C(=O)O",
    "MEASUREMENT UNITS": "%",
    "DATA VALUE": -4.85
  },
  {
    "COMPOUND": "NCCCS(=O)(=O)O",
    "MEASUREMENT UNITS": "%",
    "DATA VALUE": 2.49
  },
  {
    "COMPOUND": "CC(=O)N[C@H](C(=O)O)C(C)(C)SN=O",
    "MEASUREMENT UNITS": "%",
    "DATA VALUE": 7.76
  },
  {
    "COMPOUND": "CC(=O)SCC(CC(=O)c1ccc(C)cc1)C(=O)O (stereo not drawn)",
    "MEASUREMENT UNITS": "%",
    "DATA VALUE": 17.7
  },
  {
    "COMPOUND": "COc1cc2c(CCNC(C)=O)c[nH]c2cc1Cl",
    "MEASUREMENT UNITS": "%",
    "DATA VALUE": 6.49
  },
  {
    "COMPOUND": "CC(C(=O)O)c1ccc(C(=O)c2ccccc2)s1 (stereo not drawn)",
    "MEASUREMENT UNITS": "%",
    "DATA VALUE": -0.0039
  },
  {
    "COMPOUND": "Cc1ccccc1CNc1ncnc2c1ncn2C1OC(CO)C(O)C1O (stereo not drawn)",
    "MEASUREMENT UNITS": "%",
    "DATA VALUE": 21.1
  },
  {
    "COMPOUND": "O=C(c1ccc(OCCCc2cnc[nH]2)cc1)C1CC1",
    "MEASUREMENT UNITS": "%",
    "DATA VALUE": 42
  },
  {
    "COMPOUND": "O=C1CC[C@@H](C(=O)N2CSC[C@H]2C(=O)O)N1 ([pGlu]-[Thz]-OH)",
    "MEASUREMENT UNITS": "%",
    "DATA VALUE": 5.51
  },
  {
    "COMPOUND": "N=c1ccn2c(n1)O[C@H]1[C@H](O)[C@@H](CO)O[C@H]12",
    "MEASUREMENT UNITS": "%",
    "DATA VALUE": 8.89
  },
  {
    "COMPOUND": "CCCCCCOc1ccccc1C(N)=O",
    "MEASUREMENT UNITS": "%",
    "DATA VALUE": -0.639
  },
  {
    "COMPOUND": "CC1(C)S[C@@H]2[C@H](NC(=O)[C@H](NC(=O)N3CCN(S(C)(=O)=O)C3=O)c3ccccc3)C(=O)N2[C@H]1C(=O)O",
    "MEASUREMENT UNITS": "%",
    "DATA VALUE": 9.5
  },
  {
    "COMPOUND": "C=CC(C)=C[C@@]1(C)SC(=O)C(C)=C1O",
    "MEASUREMENT UNITS": "%",
    "DATA VALUE": 15.5
  },
  {
    "COMPOUND": "c1ccc(CCNc2nc(-c3ccccc3)cs2)cc1",
    "MEASUREMENT UNITS": "%",
    "DATA VALUE": -4.46
  },
  {
    "COMPOUND": "Cn1cc(C2=C(c3ccc(Cl)cc3Cl)C(=O)NC2=O)c2ccccc21",
    "MEASUREMENT UNITS": "%",
    "DATA VALUE": 6.65
  },
  {
    "COMPOUND": "NCCCCC(=O)O",
    "MEASUREMENT UNITS": "%",
    "DATA VALUE": 12.2
  },
  {
    "COMPOUND": "N=C(N)N",
    "MEASUREMENT UNITS": "%",
    "DATA VALUE": -3.24
  },
  {
    "COMPOUND": "CNC(=O)[C@H]1O[C@@H](n2cnc3c(NCc4cccc(I)c4)ncnc32)[C@H](O)[C@@H]1O",
    "MEASUREMENT UNITS": "%",
    "DATA VALUE": 55.6
  },
  {
    "COMPOUND": "CN(C)c1nc2c(Br)c(Br)c(Br)c(Br)c2[nH]1",
    "MEASUREMENT UNITS": "%",
    "DATA VALUE": 21.9
  },
  {
    "COMPOUND": "CCCC(=O)OC[C@@H](OC(=O)CCC)[C@@H](OC(=O)CCC)[C@H](Cn1c2nc(=O)[nH]c(=O)c-2nc2cc(C)c(C)cc21)OC(=O)CCC",
    "MEASUREMENT UNITS": "%",
    "DATA VALUE": 3.76
  },
  {
    "COMPOUND": "CCN(CC)c1ncnc2c1ncn2[C@@H]1O[C@H](COP(=O)(O)OP(=O)(O)C(Br)(Br)P(=O)(O)O)[C@@H](O)[C@H]1O",
    "MEASUREMENT UNITS": "%",
    "DATA VALUE": -1.02
  },
  {
    "COMPOUND": "O=C(O)[C@H](CC(=O)N1C[C@H]2CCCC[C@H]2C1)Cc1ccccc1",
    "MEASUREMENT UNITS": "%",
    "DATA VALUE": -8.96
  },
  {
    "COMPOUND": "Nc1nc(SCc2ccc([N+](=O)[O-])cc2)c2ncn([C@@H]3O[C@H](CO)[C@@H](O)[C@H]3O)c2n1",
    "MEASUREMENT UNITS": "%",
    "DATA VALUE": 22.6
  },
  {
    "COMPOUND": "O=C(Nc1ccc(C(=O)O)c(O)c1)c1ccccc1",
    "MEASUREMENT UNITS": "%",
    "DATA VALUE": 3.53
  },
  {
    "COMPOUND": "CCCCN1CCC(n2c(=O)[nH]c3ccccc32)CC1",
    "MEASUREMENT UNITS": "%",
    "DATA VALUE": 5.22
  },
  {
    "COMPOUND": "CC12C(=O)OC(=O)C1(C)C1CCC2O1 (stereo not drawn)",
    "MEASUREMENT UNITS": "%",
    "DATA VALUE": 3.18
  },
  {
    "COMPOUND": "CC(C)(C=O)Cc1cc(C(C)(C)C)c(O)c(C(C)(C)C)c1",
    "MEASUREMENT UNITS": "%",
    "DATA VALUE": 8.22
  },
  {
    "COMPOUND": "Ic1ccc(N2CCN(Cc3c[nH]c4ncccc34)CC2)cc1",
    "MEASUREMENT UNITS": "%",
    "DATA VALUE": 5.54
  },
  {
    "COMPOUND": "OC[C@H]1O[C@@H](n2cnc3c(NC4CCCCC4)ncnc32)[C@H](O)[C@@H]1O",
    "MEASUREMENT UNITS": "%",
    "DATA VALUE": 8.7
  },
  {
    "COMPOUND": "CCCCCC(O)c1cccc(OCc2ccc3ccccc3n2)c1 (stereo not drawn)",
    "MEASUREMENT UNITS": "%",
    "DATA VALUE": 5.39
  },
  {
    "COMPOUND": "C=CC(=O)c1ccc(CCCCCC)cc1",
    "MEASUREMENT UNITS": "%",
    "DATA VALUE": 6.31
  },
  {
    "COMPOUND": "C[N+]1(C)[C@@H]2CC(OC(=O)[C@H](CO)c3ccccc3)C[C@H]1[C@@H]1O[C@@H]12 (stereo partly drawn)",
    "MEASUREMENT UNITS": "%",
    "DATA VALUE": -10.6
  },
  {
    "COMPOUND": "COc1cc(C(O)CO)ccc1OS(=O)(=O)O (stereo not drawn)",
    "MEASUREMENT UNITS": "%",
    "DATA VALUE": 2.33
  }
]
